- Test system: EKVX NSCLC
- ASSAY_REMARKS: NCI-60 one-dose screen, 48 h (100 = growth as untreated, 0 = no growth, -100 = all killed)
- EXPERIMENTAL_CONDITIONS: 10 µM unless noted
Compounds without any hit were thinned out: in the full panel of roughly 83,000, 20% have a hit.
Param label: returns met when growth < 40%, returns not met otherwise, including exact equality.

Worked set:
[
  {
    "COMPOUND": "O=C1Nc2cc(-c3ccc(NS(=O)(=O)c4ccc(F)c(Cl)c4)cc3)ccc2/C1=C/c1ccc[nH]1",
    "TARGET": "EKVX NSCLC",
    "CATEGORY_LABEL": "met"
  },
  {
    "COMPOUND": "O=C(Nc1ccc(-c2ccc3c(c2)NC(=O)/C3=C\\c2ccc[nH]2)cc1)Nc1cccc(Cl)c1",
    "TARGET": "EKVX NSCLC",
    "CATEGORY_LABEL": "met"
  },
  {
    "COMPOUND": "O=C(OCCOCCO)N(c1cccc(Br)c1)c1nc(SCCN2CCOCC2)nc2c1cnn2CC(Cl)c1ccc(Br)cc1 (stereo not drawn)",
    "TARGET": "EKVX NSCLC",
    "CATEGORY_LABEL": "met"
  },
  {
    "COMPOUND": "O=C(Nc1ccc(F)cc1)Nc1nc2ccc([N+](=O)[O-])cc2s1",
    "TARGET": "EKVX NSCLC",
    "CATEGORY_LABEL": "met"
  },
  {
    "COMPOUND": "Cc1ccc(C2CC(c3ccc(NC(=O)Nc4ccccc4)cc3)=NN2c2ccc(S(N)(=O)=O)cc2)cc1 (stereo not drawn)",
    "TARGET": "EKVX NSCLC",
    "CATEGORY_LABEL": "met"
  }
]

**Q:** Confirm or reject: growth of CN1CCN(C(=O)Oc2cc3c(c4ccccc24)[C@H](CCl)CN3C(=O)c2cc3cc(OCCCN4CCC4)ccc3[nH]2)[C@@H]2CSSC[C@H]21 lies strictly below 40%
**A:** met

**Q:** Confirm or reject: growth of Clc1ccc2c(NCCNC34CC5CC(CC(C5)C3)C4)ccnc2c1 lies strictly below 40%
**A:** met

**Q:** Confirm or reject: growth of COc1ccc(C(=O)NNC(=O)CSc2nc3sc4c(c3c(=O)n2-c2ccc(Cl)cc2)CCCC4)cc1 lies strictly below 40%
**A:** not met

**Q:** Confirm or reject: growth of C#CCN(C)CCCOc1ccc(N(C)C(=O)c2cc(C(C)C)c(O)cc2O)cc1Cl lies strictly below 40%
**A:** met

**Q:** Confirm or reject: growth of CC1=C(C(=O)Nc2ccccc2)C(c2ccc3ccccc3c2)n2c(nc3ccccc32)N1 (stereo not drawn) lies strictly below 40%
**A:** not met

**Q:** Confirm or reject: growth of C[C@@H](Nc1c(C#N)cnc2ccc(-c3cnc4[nH]ncc4c3)cc12)c1ccccc1 lies strictly below 40%
**A:** met

**Q:** Confirm or reject: growth of COc1cc(/C=C/C(=O)c2ccc(S(=O)(=O)NCCNc3nc(N(C)C)nc(N4CCOCC4)n3)cc2)cc(OC)c1OC lies strictly below 40%
**A:** met

---

- Test system: MALME-3M melanoma
- ASSAY_REMARKS: NCI-60 one-dose screen, 48 h
- EXPERIMENTAL_CONDITIONS: 10 µM unless noted
About 83,000 compounds went through this panel and 20% of them were active in at least one assay; those are over-represented in the sample as a whole. Activity calls are given as the source filed them. How the source made its calls: active means growth percent below 10; inactive means the rest.
Can you answer with just one of these options? y for active, n for inactive

Worked set:
[
  {
    "MOLECULE": "COc1ccc(-n2c(NC(=O)N3CCN(C)CC3)c(C#N)c3ccccc32)cc1",
    "CATEGORY_LABEL": "n"
  },
  {
    "MOLECULE": "O=CNc1ccc(-n2cnc3cc(-c4ccc(O)cc4)ccc32)cc1",
    "CATEGORY_LABEL": "n"
  },
  {
    "MOLECULE": "CS(=O)(=O)Nc1cc(-c2ccc3ncnc(Nc4ccc(OCc5cccnc5)c(Cl)c4)c3c2)cnc1Cl",
    "CATEGORY_LABEL": "y"
  },
  {
    "MOLECULE": "CNc1nc2ccccc2n2c(-c3ccc(O)c(O)c3)cnc12",
    "CATEGORY_LABEL": "n"
  },
  {
    "MOLECULE": "COc1c(B(O)O)cccc1-c1nc2ccc3cn[nH]c3c2c2c1CCCC2",
    "CATEGORY_LABEL": "n"
  }
]

**Q:** Recorded test call requested for COc1cccc(C(N)=Nc2ccc(OCCCCCCCCn3cncn3)cc2)c1
**A:** n

**Q:** Recorded test call requested for Clc1ccc(-c2nc3ccc(-c4nnc(SCc5ccccc5)o4)cc3[nH]2)cc1
**A:** n

**Q:** Recorded test call requested for CCOC(=O)/C(F)=C/C1CC1C1CCN(C(=O)OC(C)(C)C)CC1 (stereo not given)
**A:** n

**Q:** Recorded test call requested for COc1ccc2oc(=O)c(-c3csc(N/N=C(\C)c4cc(OC)c(OC)c(OC)c4)n3)cc2c1
**A:** n

**Q:** Recorded test call requested for O=C(Nc1ccc(F)cc1)Nc1nc2ccc([N+](=O)[O-])cc2s1
**A:** y

---

- Test system: M14 melanoma
- ASSAY_REMARKS: NCI-60 one-dose screen, 48 h (100 = growth as untreated, 0 = no growth, -100 = all killed)
- EXPERIMENTAL_CONDITIONS: 10 µM unless noted
About 83,000 compounds went through this panel and 20% of them were active in at least one assay; those are over-represented in the sample as a whole.
PROPERTY_LABEL: growth (%)
// note: answer is a bare numeric in %

Known growth results, listed for orientation:
[
  {
    "COMPOUND": "Cc1ccc(NC(=O)N/N=C/c2c[nH]c3ccccc23)c(C)c1",
    "growth, %": 12.5
  },
  {
    "COMPOUND": "COc1ccc(NC(=O)Cn2c(/C=C/c3cccc(OC)c3)nc3ccccc3c2=O)cc1",
    "growth, %": 61.2
  },
  {
    "COMPOUND": "Cn1cc(-c2cc(N)n3nc(-c4c[nH]c5ccc(Cl)cc45)cc3n2)c2cc(Br)cnc21",
    "growth, %": -92.4
  }
]

// growth lookup, compound = CC1=C(C(=O)Nc2ccccc2)C(c2cccc3ccccc23)n2c(nc3ccccc32)N1 (centres undefined) , result: 65.7

---

- System: SW-620 colon
- ASSAY_REMARKS: NCI-60 one-dose screen, 48 h
- EXPERIMENTAL_CONDITIONS: 10 µM unless noted
The panel holds about 83,000 compounds, 20% with a hit somewhere; the sample as a whole holds those more often. The source made the active and inactive calls. Rule for the calls: active = growth percent below 10; inactive = the rest.
Can you answer with just one of these options? 1 (yes) = active, 0 (no) = inactive

[
  {
    "COMPOUND": "COc1ccc(SC2c3cc(OC)ccc3Oc3nc(N)c(C#N)c(N)c32)cc1 (stereo not drawn)",
    "CATEGORY_LABEL": "0 (no)"
  },
  {
    "COMPOUND": "COc1ccc(-c2nc3ccc(-c4nnc(SCC(=O)Nc5ccc(/C(C)=N\\O)cc5)o4)cc3[nH]2)cc1",
    "CATEGORY_LABEL": "0 (no)"
  }
]

**Q:** Recorded test call requested for N#CC1=C(c2cccs2)Nc2c(c(-c3ccccc3)nn2-c2ccccc2)C12C(=O)Nc1ccc(Cl)cc12 (stereo not drawn)
**A:** 0 (no)

**Q:** Recorded test call requested for Cc1cn(-c2cc(NC(=O)c3ccc(C)c(-n4cc(-c5cnc6cccnn56)nn4)c3)cc(C(F)(F)F)c2)cn1
**A:** 0 (no)

**Q:** Recorded test call requested for CCCCN1C(=O)/C(=C\C(=O)c2cc3ccccc3oc2=O)c2ccccc21
**A:** 1 (yes)

**Q:** Recorded test call requested for Cc1ccc(C(=O)Nc2cccc(C(=O)NC(=S)Nc3ccc(S(N)(=O)=O)cc3)c2)cc1
**A:** 0 (no)

**Q:** Recorded test call requested for CN1CCN(C(=O)Oc2cc3c(c4ccccc24)[C@H](CCl)CN3C(=O)c2cc3cc(OCCCN4CCC4)ccc3[nH]2)[C@@H]2CSSC[C@H]21
**A:** 1 (yes)

**Q:** Recorded test call requested for COc1cc(/C=C/C(=O)c2cnn(-c3cc(=O)[nH]c4ccc(Cl)cc34)c2C)cc(OC)c1OC
**A:** 1 (yes)

---

- Test system: SR leukemia
- ASSAY_REMARKS: NCI-60 one-dose screen, 48 h
- EXPERIMENTAL_CONDITIONS: 10 µM unless noted
About 83,000 compounds went through this panel and 20% of them were active in at least one assay; those are over-represented in the sample as a whole. Activity calls are given as the source filed them. The calls were made as follows: active = growth percent below 10; inactive = the rest.
Can you answer with just one of these options? active, inactive

Worked set:
[
  {
    "COMPOUND": "CC1CCc2c(sc3nc(SCC(=O)c4cccc(Br)c4)n(-c4ccccc4)c(=O)c23)C1 (stereo not drawn)",
    "TARGET": "SR leukemia",
    "CATEGORY_LABEL": "inactive"
  },
  {
    "COMPOUND": "O=C(Cc1c(-c2cccc([N+](=O)[O-])c2)n(-c2ncnc3c2c(-c2ccccc2)c(-c2ccccc2)n3Cc2ccccc2)[nH]c1=O)c1ccc(Cl)c(Cl)c1",
    "TARGET": "SR leukemia",
    "CATEGORY_LABEL": "inactive"
  },
  {
    "COMPOUND": "COc1cc(/C=C/C(=O)c2ccc(S(=O)(=O)NCCNc3nc(N(C)C)nc(N4CCOCC4)n3)cc2)cc(OC)c1OC",
    "TARGET": "SR leukemia",
    "CATEGORY_LABEL": "active"
  }
]

**Q:** Recorded test call requested for CC(C)(C)C(=O)C1CC(C#N)=C2C=Cc3c(ccc4ccccc34)N21 (stereo not drawn)
**A:** inactive

**Q:** Recorded test call requested for CCC1(OC(=O)c2ccccc2SSCCOC(=O)CCCCC2SCC3NC(=O)NC32)C(=O)OCc2c1cc1n(c2=O)Cc2cc3ccccc3nc2-1 (stereo not drawn)
**A:** active

**Q:** Recorded test call requested for COc1cccc(C(N)=Nc2ccc(OCCCCCCCCn3cncn3)cc2)c1
**A:** inactive

**Q:** Recorded test call requested for O=C(CSc1nnc(-c2ccc(-c3nc4ccc(Cl)cc4[nH]3)cc2)o1)Nc1ccc(Br)cc1
**A:** inactive

**Q:** Recorded test call requested for NS(=O)(=O)c1cccc(Nc2nc(SCC(=O)c3ccc(F)cc3)nc3ccccc23)c1
**A:** active
